Attribute: Human GLP-1R potency [EC50 (pM)]
- Tested on: human GLP-1 receptor (human, UniProt P43220 24-463)
- Protocol: cell-based or functional assay
Starred links: 1 amine or outer side, 2 acyl side, 3 side chain; linkers in the order of their positions; H or OH if unused. Non-standard residues stand in square brackets, D forms with d. Groups on a side chain read outwards from the residue. *: point of attachment. C20 diacid = O=C(O)CCCCCCCCCCCCCCCCCCC(=O)*; C18 diacid = O=C(O)CCCCCCCCCCCCCCCCC(=O)*; C16 diacid = O=C(O)CCCCCCCCCCCCCCC(=O)*; γGlu = O=C(O)[C@H](CCC(=O)[*:2])N[*:1]; εLys = N[C@@H](CCCCN[*:1])C(=O)[*:2]; Trx = NC[C@H]1CC[C@H](C(=O)O)CC1; AEEA = NCCOCCOCC(=O)O; Aib = CC(C)(N)C(=O)O

[
  {
    "Binder": "Comparator compound 0192 (peptide) peptide: H[Aib]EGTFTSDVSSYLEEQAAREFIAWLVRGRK([AEEA-AEEA-γGlu-Trx-C20 diacid])GGGGEASELSTAALGRPSAELHELATLPRTETGSGSP-NH2",
    "Human GLP-1R potency [EC50 (pM)]": 10.8
  },
  {
    "Binder": "Comparator compound 0015 (ends and bridges not checked) peptide: H[Aib]EGTFTSDVSSYLEGQAAK([AEEA-AEEA-γGlu-C18 diacid])EFIAWLVRGRGGQEPGQEPCNTATCATQRLAEFLRHSSNNFGPILPPTNVGSNTP-NH2",
    "Human GLP-1R potency [EC50 (pM)]": 45
  },
  {
    "Binder": "Comparator compound 0016 (ends and bridges not checked) peptide: H[Aib]EGTFTSDVSSYLEGQAAK([AEEA-AEEA-γGlu-C18 diacid])EFIAWLVRGRGGQEPGQEPK([AEEA-AEEA-γGlu-C18 diacid])CNTATCATQRLAEFLRHSSNNFGPILPPTNVGSNTP-NH2",
    "Human GLP-1R potency [EC50 (pM)]": 510
  },
  {
    "Binder": "Comparator compound 0167 (peptide) peptide: H[Aib]EGTFTSDVSSYLEEQAAREIFAWLVRGRK([AEEA-AEEA-γGlu-Trx-C20 diacid])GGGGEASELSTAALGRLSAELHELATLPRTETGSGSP-NH2",
    "Human GLP-1R potency [EC50 (pM)]": 10000
  },
  {
    "Binder": "Comparator compound 0185 (peptide) peptide: H[Aib]EGTFTSDVSSYLEGQAAKEFIAWLVRGRK([εLys-AEEA-AEEA-γGlu-C18 diacid])GGEASELSTAALGRPSAELHELATLPRTETGSGSP-NH2",
    "Human GLP-1R potency [EC50 (pM)]": 13.1
  },
  {
    "Binder": "Comparator compound 0164 (peptide) peptide: H[Aib]EGTFTSDVSSYLEGQAAKEIFAWLVRGRK([εLys-AEEA-AEEA-γGlu-C18 diacid])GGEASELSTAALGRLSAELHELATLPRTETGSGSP-NH2",
    "Human GLP-1R potency [EC50 (pM)]": 852
  },
  {
    "Binder": "Comparator compound 0668 (ends and bridges not checked) peptide: H[Aib]EGTFTSDVSSYLEGQAAK([AEEA-AEEA-γGlu-C18 diacid])EFIAWLVRGRGGQEPGQEPK([γGlu-γGlu-C16 diacid])CNTATCATQRLADFLRHSSPNFGAIPSSTNVGSRTY-NH2",
    "Human GLP-1R potency [EC50 (pM)]": 455
  }
]
